- ASSAYED_TARGET: HLA-A*02:01
- METHOD_DESCRIPTION: IEDB peptide-MHC binding, purified MHC/competitive/radioactivity; bounds were set here for any values at or beyond the usual limits of such assays
- CONDITION_NOTES: source organism: Vaccinia virus WR
REPORTED_ENDPOINT: pIC50
# pIC50 is unitless: minus log10 of the molar concentration; print number only

Field: example entries. Status: answers known.
     seq_text  numeric_value
0  CLVVSTKGDV           6.17
1   ILTAILFFM           7.46

Tell me its pIC50 given ALALEQYGI as the entry. 7.52

Tell me its pIC50 given MMKTYIEFV as the entry. 8.33

Tell me its pIC50 given DTMRIYCSL as the entry. 5.47

Tell me its pIC50 given MIIGEPIIVA as the entry. 7.36

Tell me its pIC50 given RVFNEYGFV as the entry. 6.72

###

Catalogue of sequences with associated IC50
- ASSAYED_TARGET: HLA-A*02:02
- METHOD_DESCRIPTION: IEDB peptide-MHC binding, cellular MHC/competitive/fluorescence; bounds were set here for any values at or beyond the usual limits of such assays
- CONDITION_NOTES: source organism: Vaccinia virus WR
Return type: number; implicit unit µM.

Field: example entries. Status: answers known.
>>> print(df.to_string())
     seq_text  numeric_value
0  ETKRNIARHL             50
1  ETAIRAGYSI           25.8
2  LTNKKYRCMA           34.8
3  DMICCDSRIV           11.3
4   PAHLINKLL           6.69

Tell me its IC50 given LTKDRKMLEL as the entry. 7.7

Tell me its IC50 given ITLILSNKL as the entry. 5.11

Tell me its IC50 given VIDRLPSET as the entry. 7.08

Tell me its IC50 given NVQSLIKFI as the entry. 12.9

###

Catalogue of sequences with associated IC50
- ASSAYED_TARGET: HLA-A*02:06
- METHOD_DESCRIPTION: IEDB peptide-MHC binding, cellular MHC/competitive/fluorescence; bounds were set here for any values at or beyond the usual limits of such assays
- CONDITION_NOTES: source organism: Vaccinia virus WR
Return type: number; implicit unit µM.

In [3]: df
Out[3]:
     seq_text  numeric_value
0  KLKVDSDSGL             10
1   EVGTNFGTI           19.9
2   DVKVLAARL             10

Then there is this sequence:
Tell me its IC50 given TLFYCDERDA as the entry. 19.5

###

- ASSAYED_TARGET: HLA-A*68:02
- METHOD_DESCRIPTION: IEDB peptide-MHC binding, purified MHC/competitive/radioactivity; bounds were set here for any values at or beyond the usual limits of such assays
- CONDITION_NOTES: source organism: Vaccinia virus WR
Catalogue of sequences with associated IC50
Just so you know, I need the unit written after the number.

Tell me its IC50 given FITVLTSVDI as the entry. 1240 nM

Tell me its IC50 given DTIAHINTL as the entry. 1240 nM

Tell me its IC50 given LIAGIILLIL as the entry. 143 nM

Tell me its IC50 given ELKDLLNVT as the entry. 2780 nM

Tell me its IC50 given VVIVENDNV as the entry. 967 nM

Tell me its IC50 given KLYGYASLTT as the entry. 1740 nM

Tell me its IC50 given ELAYYNSCML as the entry. 650 nM

Tell me its IC50 given IVNTTYDFL as the entry. 750 nM

Tell me its IC50 given IVFGIYKDNL as the entry. 628 nM

Tell me its IC50 given PIIYSKAGNI as the entry. 3110 nM

Tell me its IC50 given NMCNSDVSV as the entry. 202 nM
